Value source: PubChem BioAssay AID1159580

test: chemical genetic growth profiling, strain panel (AID 1159580);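 also: tested at 20 µM; growth read once vehicle control cultures reached saturation at 30 °C; 1 = growth at the plate median or of vehicle wells; lower values mean less growth of the strain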; details: S. cerevisiae deletion strains, growth OD, locus YFR028C, strain CDC14
Hit rate of the full screen: of about 5,500 compounds, about 2,000 (36%) were called active. Inconclusive results (about 18%) are left out. Rule as the data show it: active = normalized growth mostly below about 0.91 (no sharp cut-off); inconclusive = no clear call, values can overlap the other calls; inactive = mostly above about 0.92. The list shows a part of the results.
Hello, when you answer, please use one of the following outcomes: 1 (active), 0 (inactive)

Sample answers from the record:
INSERT INTO results (compound, label_class) VALUES
  ('Cc1cc(/C(N)=N\OC(=O)C(C)(C)C)cc(/C(N)=N\OC(=O)C(C)(C)C)c1', 0),
  ('CSc1n[nH]c(-c2cc(C(C)(C)C)oc2C)c1C#N', 0),
  ('C#CCSC1=NNC(c2ccccn2)S1 (stereo unspecified)', 1),
  ('Cc1nn(-c2cccc(Cl)c2)c2oc(=O)cc(C(F)(F)F)c12', 0),
  ('O=C(CSC1=NNC(c2ccccn2)S1)Nc1ccccc1 (stereo unspecified)', 0);

As a next step, examine the compound that follows.
q: Field: outcome | Entry: COc1c(Br)csc1C(=O)O/N=C(/N)c1cc(C(F)(F)F)cc(C(F)(F)F)c1
a: 0
